- MEASURED_ON: proton pump (H+/K+-ATPase) (UniProt P19156)
- Construct: The gastric vesicle as an enzyme source was prepared by the same method as in the Experiment 1—1 of WO 94/14795
- TEST_DETAILS: Inhibition of proton pump (H+/K+-ATPase) activity, gastric vesicle enzyme source
- CONDITION_NOTES: pH 6.4, 37° C., 30 min preincubation, linear regression over 5 concentrations, read-out: IC50, inhibitory effects on proton pump (H+/K+-ATPase) activity
Counter-ions that a name gives are not always drawn.
Collected IC50 values appear next to each entry.

- COMPOUND: "Cc1nc(Nc2ccc(F)c(F)c2)nc(N2CCc3ccc(F)cc3C2C)c1C (centres unmarked) [Example 7, hydrochloride]"
  IC50 / µM: 2.6
- COMPOUND: "Cc1nc(Nc2ccc(Cl)cc2)nc(N2CCc3cc(F)ccc3C2C)c1C (centres unmarked) [Example 20, hydrochloride]"
  IC50 / µM: 1.2
- COMPOUND: "Cc1nc(Nc2ccc(F)cc2F)nc(N2CCc3c(Cl)cccc3C2C)c1C (centres unmarked) [Example 39, hydrochloride]"
  IC50 / µM: 0.9
- COMPOUND: "Cc1c(CF)nc(Nc2ccc(F)cc2)nc1N1CCc2ccccc2C1C (centres unmarked) [Example 24, hydrochloride]"
  IC50 / µM: 0.9
- COMPOUND: "Cc1nc(Nc2ccc(F)cc2)nc(N2CCc3c(Cl)cccc3C2C)c1C (centres unmarked) [Example 35, hydrochloride]"
  IC50 / µM: 0.9
- COMPOUND: "Cc1nc(Nc2cccc(F)c2)nc(N2CCc3ccc(F)cc3C2C)c1C (centres unmarked) [Example 12, hydrochloride]"
  IC50 / µM: 3.2
- COMPOUND: "Cc1ccccc1Nc1nc(C)c(C)c(N2CCc3ccc(F)cc3C2C)n1 (centres unmarked) [Example 5, hydrochloride]"
  IC50 / µM: 0.6
- COMPOUND: "COc1ccc2[nH]c([S+]([O-])Cc3ncc(C)c(OC)c3C)nc2c1 (centres unmarked) [Omeprazole, reference compound]"
  IC50 / µM: 11.5
